- Tested on: K4 kissing-loop RNA reporter;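 note: bound reporter read as fluorescence of individual clusters on recovered sequencing chips by microscopy, with normalized cluster intensities fitted with a binding model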
- protocol_notes: apparent KD of K4 kissing-loop reporter; higher = weaker reporter binding
- recorded_conditions: Eterna round: R107; input ligand: theophylline 20 uM
Think of 300 nM as a floor: if apparent KD of K4 kissing-loop reporter stands on it or above, it is YES; beneath it, NO.

(Q) apparent KD of K4 kissing-loop reporter >= 300 nM for AUUAAUUUCAGAGGAUAUCGUAAUUUUAUUUUAUUUUUUCAUUUAUGCAGUGAUGUUGCAUUUAUUCGAGAAGGCUGAUUUAUAA [JR_SSFMNB_Sub021] ?
(A) NO

(Q) apparent KD of K4 kissing-loop reporter >= 300 nM for AGUGAUGUGGGAAGGAGCGGUAUAAGAAUUCAGUGAUGUUGAAGUGUUGCUGUAAUAAAGAGCCAGGUAGGUCGCCUAGAUGUUA [KL-XARG B30] ?
(A) YES

(Q) apparent KD of K4 kissing-loop reporter >= 300 nM for UGCUGGUCAUAGCGUAGUGUGAGCCGCUCACGAGGACCGGUACGGCCGCCACUCGUUACAAAGCAGUGAUGUUGCAAUAGGCUCU [theeternabot_sameState_KL_Trp_A_24] ?
(A) YES

(Q) apparent KD of K4 kissing-loop reporter >= 300 nM for AGUGAUGUGGGAAGGAGCGGUAUAUGAGUUCAGUGAUGUUGAAGUGAUGAUAUAGUGAUGUGCCAGGUAGGUCGCCUAGAUGUUA [KL-XARG-B5] ?
(A) NO

(Q) apparent KD of K4 kissing-loop reporter >= 300 nM for UGAUACCAGACGGCCGCCACUUCCGCAAGUCAAAGACUUGCCAAGGGAAUCGUCCAGUGAUGUUGGAGGACCGGGUCUGGUAUCU [FiskerMod 4 - Jieux - Exclusion - Tryptophan B] ?
(A) YES

(Q) apparent KD of K4 kissing-loop reporter >= 300 nM for AAUACGAAGCAGUGAUGUUGCUUAUGAGAAGGAGCGCACGAAAGUGCAGGUAGGUCGCUCAGCCAAGUGGACGAAAACGUCCACA [whbob_SS_Arginine_A_sa108] ?
(A) NO

(Q) apparent KD of K4 kissing-loop reporter >= 300 nM for UUUUUAUGCAGUGAUGUUGCUAAUAUAACAGAGGAUAUGCAUUAAUGCAGAAGGCUGAAAUACUAUACUUUAAUAUAUUAAAUUU [JR_SSFMNA_Sub015] ?
(A) NO

(Q) apparent KD of K4 kissing-loop reporter >= 300 nM for AGGAUCCGUCGACAAAAGUCGACAUAAUCCGAGGAUAUGACGAAAGUCAGAAGGUGGACAUAAGUCCAGUGAUGUUGGAGGAUCC [FmnA 17 #SwitchBubble #K4Late] ?
(A) YES

(Q) apparent KD of K4 kissing-loop reporter >= 300 nM for GGUUAAAGCACCCGGAGUGAUGUUCCGGAUACCAGCAAACCAACUUGCCCUUGGCAGCCGUAUAGCGUCCGGUGGGCCGAGCAUA [Raarce] ?
(A) NO

(Q) apparent KD of K4 kissing-loop reporter >= 300 nM for AUGUAUAUCUCAGGAUAUAUAUGUGUGUGGUGUAUACAUAGUGAUGUUGUGUAUAUCCACAUAUGUAUAGAAGGGAGAUGUGCAU [Skye_SS_FMNB] ?
(A) NO
